Listing of recorded IC50 by entry.
# assayedSystem: Protein farnesyltransferase/geranylgeranyltransferase type-1 subunit alpha / Protein farnesyltransferase subunit beta (Plasmodium falciparum, UniProt Q5EI73+Q5EI74)
# Sequence (Q5EI73 1-521): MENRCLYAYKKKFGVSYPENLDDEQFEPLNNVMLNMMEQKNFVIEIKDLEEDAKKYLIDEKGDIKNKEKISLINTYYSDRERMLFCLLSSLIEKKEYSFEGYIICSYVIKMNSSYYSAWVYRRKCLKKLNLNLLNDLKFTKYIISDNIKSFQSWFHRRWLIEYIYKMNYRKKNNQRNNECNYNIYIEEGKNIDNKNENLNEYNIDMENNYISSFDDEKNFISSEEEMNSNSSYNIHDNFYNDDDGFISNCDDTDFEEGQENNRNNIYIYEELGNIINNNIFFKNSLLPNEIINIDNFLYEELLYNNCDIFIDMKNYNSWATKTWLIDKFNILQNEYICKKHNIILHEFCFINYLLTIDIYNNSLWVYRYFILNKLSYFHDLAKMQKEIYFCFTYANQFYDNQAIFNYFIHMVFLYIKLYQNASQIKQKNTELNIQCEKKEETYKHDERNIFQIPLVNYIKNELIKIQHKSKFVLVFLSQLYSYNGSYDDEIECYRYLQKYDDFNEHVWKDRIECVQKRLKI
# Sequence (Q5EI74 1-923): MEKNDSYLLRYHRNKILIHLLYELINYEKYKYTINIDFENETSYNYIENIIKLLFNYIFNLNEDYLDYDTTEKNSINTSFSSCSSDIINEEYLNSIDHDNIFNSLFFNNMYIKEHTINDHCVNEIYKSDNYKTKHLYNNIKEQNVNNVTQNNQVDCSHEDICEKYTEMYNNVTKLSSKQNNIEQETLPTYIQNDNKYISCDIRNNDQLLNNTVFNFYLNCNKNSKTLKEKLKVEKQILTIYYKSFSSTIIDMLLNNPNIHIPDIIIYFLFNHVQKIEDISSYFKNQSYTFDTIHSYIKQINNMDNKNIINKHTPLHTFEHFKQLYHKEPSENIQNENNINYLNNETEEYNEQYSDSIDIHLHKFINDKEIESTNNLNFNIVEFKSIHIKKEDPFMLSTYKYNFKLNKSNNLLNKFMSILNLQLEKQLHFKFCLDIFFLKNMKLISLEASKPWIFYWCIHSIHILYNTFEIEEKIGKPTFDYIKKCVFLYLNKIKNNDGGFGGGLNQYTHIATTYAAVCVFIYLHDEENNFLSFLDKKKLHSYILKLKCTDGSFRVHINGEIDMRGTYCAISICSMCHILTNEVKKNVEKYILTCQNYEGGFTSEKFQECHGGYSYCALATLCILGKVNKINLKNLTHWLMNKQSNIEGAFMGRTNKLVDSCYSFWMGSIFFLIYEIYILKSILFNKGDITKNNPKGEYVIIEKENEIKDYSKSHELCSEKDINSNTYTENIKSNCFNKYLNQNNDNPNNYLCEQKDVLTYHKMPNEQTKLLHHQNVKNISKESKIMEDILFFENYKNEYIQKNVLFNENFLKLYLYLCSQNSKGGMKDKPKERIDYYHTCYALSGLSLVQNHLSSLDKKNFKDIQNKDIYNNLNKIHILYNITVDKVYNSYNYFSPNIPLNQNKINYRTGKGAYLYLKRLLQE
# assayProcedure: PfPFT and Rat PFT IC50 Determination
# assayContext: pH 7.5; 37 °C
# Description: Assays for PFT activity were performed with a PFT-specific scintillation assay (SPA) kit (Amersham Biosciences, Piscataway, NJ). IC50 values were calculated using linear regression analysis of the plots of [3H] farnesyl pyrophosphate (FPP) prenylation versus concentration of compounds.
Give your result in nM as a bare value.

Check out these entries, answers already filled in.
* [C-]#[N+]c1ccc2c(c1)CC(N(CC(=O)NC(C)(C)C)S(=O)(=O)c1ccccn1)CN2Cc1cncn1C (stereo not drawn) | 1.4
* [C-]#[N+]c1ccc2c(c1)CC(N(CC(=O)NC(C)(C)C)S(=O)(=O)c1cccnc1)CN2Cc1cncn1C (stereo not drawn) | 25

Here is another molecule to look at.
Task item: Return reported IC50; argument: [C-]#[N+]c1ccc2c(c1)CC(N(CC(=O)NC(C)(C)C)S(=O)(=O)c1ccncc1)CN2Cc1cncn1C (stereo not drawn)
Reply: 1000

Measured values drawn from BindingDB's records for doi:10.1021/jm0491039 for this set.
